Exercise: state measured IC50 for each of the binders provided.
Molecular target: HLA-DRB5*0101 (human)
Test: competition binding
Details: modification not given
I only need the number, in nM, no unit after it.

Ask: Which measured IC50 value corresponds to PRFIAVGYVDDTQFV [p4] ?
Result: 755

Ask: Which measured IC50 value corresponds to IAVGYVDDTQFVRFD [p5] ?
Result: 798

Ask: Which measured IC50 value corresponds to RCWALSFYPAEITLT [p40] ?
Result: 812

Ask: Which measured IC50 value corresponds to HRVDLGTLRGYYNQS [p13*] ?
Result: 12400

Ask: Which measured IC50 value corresponds to AEITLTWQRDGEDQT [p42] ?
Result: 4690

Ask: Which measured IC50 value corresponds to SQRMEPRAPWIEQEGP [p9] ?
Result: 67100

Ask: Which measured IC50 value corresponds to HQYAYDGKDYIALKE [p23] ?
Result: 1500

Ask: Which measured IC50 value corresponds to GTLRGYYNQSEAGSH [p15*] ?
Result: 612

Ask: Which measured IC50 value corresponds to PEYWDGETRKVKAHS [p11] ?
Result: 24400

Ask: Which measured IC50 value corresponds to HSMRYFFTSVSRPGR [p1*] ?
Result: 4

Ask: Which measured IC50 value corresponds to MRYFFTSVSRPGRGE [p2*] ?
Result: 4
